Target: human ether-à-go-go-related gene (hERG) potassium channel (human)
Assay: primary screen, population patch clamp on CHO cells stably expressing hERG; higher = less effect of the substance
Among all 310,000 compounds or so, about 14,000 (4.5%) showed an effect of 50% or more. Effects have a minus sign here. The sample as a whole holds a higher share of strong results than the screen did.
Form field: hERG current change (%, negative = inhibition) at 10uM (one value per entry).
// note: answer is a bare numeric in %

1. CC1CCN(S(=O)(=O)c2ccc3c(c2)N(CC(=O)NCCCN2CCCCC2C)C(=O)CS3)CC1 (stereo not drawn)    0.668
2. Cc1ccc(CNC(=O)CN2C(=O)CSc3ccc(S(=O)(=O)N4CCC(C)CC4)cc32)cc1    -27.4
3. CC1CCCCN1CCNC(=O)CN1C(=O)CSc2ccc(S(=O)(=O)N3CCCCC3)cc21 (stereo not drawn)    -17.6
4. CC1CCN(S(=O)(=O)c2ccc3c(c2)N(CC(=O)NCCN2C(C)CCCC2C)C(=O)CS3)CC1 (stereo not drawn)    -52.7
5. CC1CCN(CCCNC(=O)CN2C(=O)CSc3ccc(S(=O)(=O)N4CCOCC4)cc32)CC1    6.31

Problem: Specify measured hERG current change (%, negative = inhibition) at 10uM for O=C(CN1C(=O)CSc2ccc(S(=O)(=O)N3CCOCC3)cc21)NCCCN1CCc2ccccc2C1 .
Solution: -66.3

Problem: Specify measured hERG current change (%, negative = inhibition) at 10uM for O=C(CN1C(=O)CSc2ccc(S(=O)(=O)N3CCOCC3)cc21)NCCCN1CCCCC1 .
Solution: 18

Problem: Specify measured hERG current change (%, negative = inhibition) at 10uM for CC1CCN(CCCNC(=O)CN2C(=O)CSc3ccc(S(=O)(=O)N4CCC(C)CC4)cc32)CC1 .
Solution: -54.5

Problem: Specify measured hERG current change (%, negative = inhibition) at 10uM for O=C(CN1C(=O)CSc2ccc(S(=O)(=O)N3CCOCC3)cc21)NCc1cccnc1 .
Solution: 6.4

* * *

Biological target: human ether-à-go-go-related gene (hERG) potassium channel (human)
Test: primary screen, population patch clamp on CHO cells stably expressing hERG; higher = less effect of the substance
In all, about 310,000 compounds went through this assay and about 14,000 (4.5%) showed an effect of 50% or more. Effects have a minus sign here. The sample holds strong results, similar compounds and a random draw of the others, so the mix is not that of the screen.
PROPERTY_NAME: hERG current change (%, negative = inhibition) at 10uM (%)
// note: answer is a bare numeric in %

1) Cn1cc(CN2CCC(C(=O)Nc3cccc(-c4cscn4)c3)CC2)cn1    5.33
2) CCn1cc(CN2CCC(C(=O)Nc3cccc(-c4cccc(F)c4)c3)CC2)cn1    -66.4
3) Cn1cc(CN2CCC(C(=O)Nc3cccc(-c4cccc(F)c4)c3)CC2)cn1    -67.4
4) CCCn1nc2cc(C(=O)NCc3ccc(OC(F)(F)F)cc3)ccc2c1OCC    14.3

Alright, here's another compound for you.
Problem: Specify measured hERG current change (%, negative = inhibition) at 10uM for CCn1ncc(CN2CCCC(C(=O)Nc3cccc(-c4cc5ccccc5[nH]4)c3)C2)c1C (centres unmarked) .
Solution: -56.7

* * *

Molecular target: human ether-à-go-go-related gene (hERG) potassium channel (human, UniProt Q12809)
Sequence (Q12809 whole entry, looked up): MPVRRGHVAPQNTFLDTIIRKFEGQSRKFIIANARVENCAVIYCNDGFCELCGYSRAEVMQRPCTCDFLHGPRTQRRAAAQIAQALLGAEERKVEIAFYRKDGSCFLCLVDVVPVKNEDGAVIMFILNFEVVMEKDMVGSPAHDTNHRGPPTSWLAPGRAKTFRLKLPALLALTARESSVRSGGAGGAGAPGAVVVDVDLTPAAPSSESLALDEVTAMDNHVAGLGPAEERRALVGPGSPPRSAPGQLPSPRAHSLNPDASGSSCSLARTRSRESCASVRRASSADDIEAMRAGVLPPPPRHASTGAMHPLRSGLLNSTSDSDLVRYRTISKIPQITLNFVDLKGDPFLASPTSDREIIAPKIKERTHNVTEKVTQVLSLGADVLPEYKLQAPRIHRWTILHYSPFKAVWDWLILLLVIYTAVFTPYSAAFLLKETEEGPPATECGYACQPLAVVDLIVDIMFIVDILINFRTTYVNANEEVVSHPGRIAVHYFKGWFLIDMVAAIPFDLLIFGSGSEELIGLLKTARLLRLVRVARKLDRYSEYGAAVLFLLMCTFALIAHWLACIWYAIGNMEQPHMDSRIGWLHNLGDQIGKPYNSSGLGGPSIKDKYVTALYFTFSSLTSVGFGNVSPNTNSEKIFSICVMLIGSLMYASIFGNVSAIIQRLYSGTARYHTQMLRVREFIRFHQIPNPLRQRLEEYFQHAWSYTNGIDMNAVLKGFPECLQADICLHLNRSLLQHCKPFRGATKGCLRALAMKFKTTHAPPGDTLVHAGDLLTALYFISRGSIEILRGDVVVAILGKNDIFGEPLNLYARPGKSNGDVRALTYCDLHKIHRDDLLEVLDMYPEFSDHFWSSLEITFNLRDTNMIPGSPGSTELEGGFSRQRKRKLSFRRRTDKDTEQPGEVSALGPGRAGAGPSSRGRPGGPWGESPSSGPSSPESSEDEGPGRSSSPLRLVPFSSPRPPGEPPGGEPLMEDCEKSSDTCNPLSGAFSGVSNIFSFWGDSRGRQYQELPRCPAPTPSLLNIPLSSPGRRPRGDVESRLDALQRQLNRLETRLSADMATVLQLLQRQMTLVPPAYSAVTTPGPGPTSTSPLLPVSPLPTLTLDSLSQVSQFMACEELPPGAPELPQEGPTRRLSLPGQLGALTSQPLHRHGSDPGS
Experiment: primary screen, population patch clamp on CHO cells stably expressing hERG; higher = less effect of the substance
The campaign covered roughly 310,000 compounds. About 14,000 (4.5%) showed an effect of 50% or more. The effect is printed as a negative number. For the sample, strong results were picked, then their nearest neighbours and some compounds at random.
PROPERTY_NAME: hERG current change (%, negative = inhibition) at 10uM (%)
// note: answer is a bare numeric in %

Some solved cases for reference:
1) CN(C)CCN(C(=O)c1ccc2ccccc2c1)c1nc2ccc(Br)cc2s1.Cl    13.2
2) CC(C)CCN1CCN(Cc2nc3c(s2)CCCC3)CC1CCO (stereo not shown)    -28.2
3) OCCC1CN(Cc2nc3c(s2)CCCC3)CCN1Cc1ccccc1 (stereo not shown)    -22.5
4) O=C1[C@H]2[C@H](C=CC[C@H]2C(=O)N2CCOCC2)CCN1Cc1ccc(Cl)c(Cl)c1    -3.89
5) OCCC1CN(Cc2nc3c(s2)CCCC3)CCN1CCc1ccccc1 (stereo not shown)    -61.4
6) CN(C)CCN(C(=O)C1=COCCO1)c1nc2ccc(F)cc2s1.Cl    -73
7) CCOC(=O)c1c(NC=O)sc2c1CCC2    -2.89
8) COc1cc(NC(=O)CCCN2C(=O)NC(C)(C)C2=O)cc(OC)c1    12.2
9) O=P(O)(O)O.c1ccc(CSCCc2ccncc2)cc1    -5.48

Problem: Return reported hERG current change (%, negative = inhibition) at 10uM for target or system human ether-à-go-go-related gene (hERG) potassium channel (human, UniProt Q12809), item CN(C)CCN(C(=O)C1=COCCO1)c1nc2ccc(Cl)cc2s1.Cl .
Solution: -73.1

* * *

Target: human ether-à-go-go-related gene (hERG) potassium channel (human, UniProt Q12809);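 further: peak tail current of the secondary pulse compared with the same well before compound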
Experiment: primary screen, population patch clamp on CHO cells stably expressing hERG; higher = less effect of the substance
The campaign covered roughly 310,000 compounds. About 14,000 (4.5%) showed an effect of 50% or more. The effect is printed as a negative number. The sample holds strong results, similar compounds and a random draw of the others, so the mix is not that of the screen.
Form field: hERG current change (%, negative = inhibition) at 10uM (one value per entry).
// note: answer is a bare numeric in %

Some solved cases for reference:
1. NC(=O)N/N=C/C=C/c1ccc(F)cc1    8.5
2. O=c1oc2cccnc2n1CCS(=O)(=O)c1ccc(F)cc1    9.29
3. CC1(C)CC(=O)c2ccc(OCc3ccc([N+](=O)[O-])cc3)cc2O1    -57.7

Alright, here's another molecule for you.
Problem: Return reported hERG current change (%, negative = inhibition) at 10uM for target or system human ether-à-go-go-related gene (hERG) potassium channel (human, UniProt Q12809), item Cc1ccc(-c2nc(CS(=O)CC(=O)NCCN3CCCC3)c(C)o2)cc1 (stereo not shown) .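 Further: peak tail current of the secondary pulse compared with the same well before compound.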
Solution: -5.74

* * *

Form field: hERG current change (%, negative = inhibition) at 10uM (one value per entry).
Molecular target: human ether-à-go-go-related gene (hERG) potassium channel (human, UniProt Q12809);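 further: peak tail current of the secondary pulse compared with the same well before compound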
Assay: primary screen, population patch clamp on CHO cells stably expressing hERG; higher = less effect of the substance
Among all 310,000 compounds or so, about 14,000 (4.5%) showed an effect of 50% or more. Effects have a minus sign here. Many of the other results were omitted from the sample, so strong results are more common in it than they were.
// note: answer is a bare numeric in %

1) COc1ccc(C(=O)NCC(=O)OCc2ccc(F)cc2Cl)cc1OC    -1.96
2) CN(C)CCNC(C(=O)Nc1cccc(C(F)(F)F)c1)c1ccccc1.O=C(O)C(=O)O (centres unmarked)    -56.7

Problem: Specify measured hERG current change (%, negative = inhibition) at 10uM for COc1ccc(C(=O)NC2CC2)cc1OC1CCN(Cc2ccc(F)cc2F)CC1 .
Solution: -81.5

Problem: Specify measured hERG current change (%, negative = inhibition) at 10uM for O=C(NCc1ccccn1)c1ccc(OC2CCN(Cc3ccc(F)cc3F)CC2)cc1 .
Solution: -25.9

Problem: Specify measured hERG current change (%, negative = inhibition) at 10uM for CCCN1CCC(=O)N([C@H](CSc2ccc(Br)cc2)c2ccccc2)CC1 .
Solution: -76.2

* * *

Target: human ether-à-go-go-related gene (hERG) potassium channel (human);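 further: peak tail current of the secondary pulse compared with the same well before compound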
Assay: primary screen, population patch clamp on CHO cells stably expressing hERG; higher = less effect of the substance
Protocol: Briefly, Chinese hamster ovary (CHO) cells stably expressing the hERG channel were dislodged from tissue culture flasks and dispensed into PPC plates. […] During the recording, background leak currents were estimated by a 100 ms step to -80 mV from an initial holding potential of -70 mV and subtracted from the subsequent current measurement. The campaign was conducted in two phases using slight differences in recording protocol. […]
The campaign covered roughly 310,000 compounds. About 14,000 (4.5%) showed an effect of 50% or more. The effect is printed as a negative number. For the sample, strong results were picked, then their nearest neighbours and some compounds at random.
Form field: hERG current change (%, negative = inhibition) at 10uM (one value per entry).
// note: answer is a bare numeric in %

Some solved cases for reference:
1) CCOC(=O)N1CCc2c(sc(NC(=O)CN3CCOCC3)c2C(=O)Nc2ccccc2)C1    -68.8
2) COc1ccc(-c2n[nH]c3c2CN(C(=O)c2ccc(OC)c(OC)c2)CC3)cc1    -15.5
3) CCOc1cnc(C(=O)NNC(=O)c2ccccc2Br)o1    11
4) O=C(CSc1nnc(-c2ccco2)n1CC1CCCO1)NC1CCCC1 (stereo not drawn)    -4.75

Alright, here's another compound for you.
Problem: Specify measured hERG current change (%, negative = inhibition) at 10uM for CCOc1cccc(CN2CCC(CCC(=O)NC3CC3)CC2)c1O .
Solution: -70.3
